// values below are reported solubility kinetic
Assay: Kinetic solubility of compound by measuring concentration at pH 7.4 in saturated PBS buffer by UV LCMS/MS using calibration curves. The assay has been performed by Enamine biological services, Bienta Ltd.The protocol is publicly available: dx.doi.org/10.17504/protocols.io.j8nlk8y41l5r/v1
Type: physicochemical
Settings: PBS buffer
Return type: number; implicit unit µM.

STRUCTURE_NOTATION: N#C[C@H](Nc1cccc(C(=O)O)c1)c1cc(Cl)cc2[nH]ncc12
solubility kinetic (µM): 112

stdin: Record request: solubility kinetic value, item `CSc1cc2c(cc1NC(=O)c1cc(F)cc3[nH]ncc13)CNC2`
stdout: 392

stdin: Param item: `CNC(=O)c1cc(Cl)ccc1NS(=O)(=O)c1ccc(Oc2ccccc2Cl)cc1`
stdout: 25

stdin: Param item: `CC(C)NC(=O)[C@H](Nc1ccc2c(c1)CNC2)c1cc(Cl)cc2[nH]c(-c3ccccc3)nc12`
stdout: 154

---

Assay: Kinetic solubility of compound by measuring concentration at pH 7.4 in saturated PBS buffer by UV LCMS/MS using calibration curves. The assay has been performed by Enamine biological services, Bienta Ltd.The protocol is publicly available: dx.doi.org/10.17504/protocols.io.j8nlk8y41l5r/v1
Format: physicochemical
Conditions: PBS buffer
VALUE_KIND: solubility kinetic (µM)
Return type: number; implicit unit µM.

STRUCTURE_NOTATION: O=C(Nc1cc(Cl)cc(C(=O)Nc2cccc(-n3nn[nH]c3=O)c2)c1)OCc1ccccc1
solubility kinetic [µM]: 107
//
STRUCTURE_NOTATION: CNC(=O)[C@H](Nc1ccc2c(c1)CNC2)c1cc(Cl)cc2[nH]c(-c3ccccc3)nc12
solubility kinetic [µM]: 178
//
STRUCTURE_NOTATION: CC(C)CNC(=O)c1cc(Cl)c(F)cc1NS(=O)(=O)c1ccc(Oc2ccccc2Cl)cc1
solubility kinetic [µM]: 4
//
STRUCTURE_NOTATION: O=C(NCC(F)F)[C@H](Nc1cc2c(cc1Br)CNC2)c1cc(Cl)cc(C2CC2)c1
solubility kinetic [µM]: 333

Here is the next item to consider.
stdin: Record request: solubility kinetic value, item `CNC(=O)[C@H](Nc1cc(Cl)cc(NC(=O)OCc2ccccc2)c1)c1cccc(-c2nn[nH]n2)c1`
stdout: 333

---

Assay: Kinetic solubility of compound by measuring concentration at pH 7.4 in saturated PBS buffer by UV LCMS/MS using calibration curves. The assay has been performed by Enamine biological services, Bienta Ltd.The protocol is publicly available: dx.doi.org/10.17504/protocols.io.j8nlk8y41l5r/v1
Assay type: physicochemical
Conditions: PBS buffer
// values below are reported solubility kinetic
Return type: number; implicit unit µM.

STRUCTURE_NOTATION: O=C(Nc1ccc2c(c1)CNC2)c1cc(Cl)cc2c1cnn2C1CCC1
VALUE_KIND: solubility kinetic
ASSAY_RESULT: 172
//
STRUCTURE_NOTATION: NCc1cccc(NC(=O)CN(C(=O)OCc2ccccc2)c2ccc(OCc3ccccc3)cc2)c1
VALUE_KIND: solubility kinetic
ASSAY_RESULT: 56
//
STRUCTURE_NOTATION: O=C(Nc1cc2c(cc1Br)CNC2)c1cc(F)cc2[nH]ncc12
VALUE_KIND: solubility kinetic
ASSAY_RESULT: 47
//
STRUCTURE_NOTATION: O=C1Cc2c(cc(F)cc2C(=O)Nc2ccc3c(c2)CNC3)N1
VALUE_KIND: solubility kinetic
ASSAY_RESULT: 368

stdin: Record request: solubility kinetic value, item `O=C(NCC(F)F)[C@H](Nc1ccc2c(c1)CNC2)c1cc(Cl)cc2ccoc12`
stdout: 187

stdin: Param item: `O=C(Nc1ccc2c(c1)CNC2)c1cc(F)cc2[nH]c(-c3ccc(F)cc3)nc12`
stdout: 6

stdin: Param item: `NCc1cccc(NC(=O)c2cc(Cl)cc(CN)c2)c1`
stdout: 375

stdin: Param item: `O=C(Nc1cc2c(c(-c3c[nH]c(=O)c(F)c3)c1)CNC2)c1cc(F)cc2[nH]ncc12`
stdout: 66

stdin: Param item: `OCC#C[C@H](Nc1ccc2c(c1)CNC2)c1cc(Cl)cc2[nH]ncc12`
stdout: 135

The measurements presented in this section are drawn from ChEMBL document CHEMBL5674850.
